Molecular target: T1, VEGFR-1-Fc (UniProt P17948 27-338)
T1 construct: domain: first three Ig domains; expressed in Drosophila S2 cells, purified on Protein A sepharose; also called VEGFR-1-Fc fusion protein; not shown: Fc fragment from the Signal-pIgPlus vector
T1 sequence (P17948 27-338): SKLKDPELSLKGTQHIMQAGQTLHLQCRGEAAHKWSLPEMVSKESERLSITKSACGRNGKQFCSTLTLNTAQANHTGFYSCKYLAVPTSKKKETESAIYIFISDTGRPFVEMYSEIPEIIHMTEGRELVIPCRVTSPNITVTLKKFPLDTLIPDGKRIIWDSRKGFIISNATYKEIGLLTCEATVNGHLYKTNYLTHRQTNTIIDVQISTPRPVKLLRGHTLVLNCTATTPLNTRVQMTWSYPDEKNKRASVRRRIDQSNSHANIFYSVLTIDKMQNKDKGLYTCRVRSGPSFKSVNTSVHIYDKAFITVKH
Test: receptor-Fc IP
value-type: binding result

binder	recorded-result
14-9 (ligand, clone entry) GQNHHEVVKFMDVYQRSYCHPIETLVDIFQEFGVATNTFFKPSCVPLMRCGGCCNDEGLECVPTEESNITMQIMRITVPLSQGPKPVTISFLQHNKCECRPKKDL	binds
